Target: T1, monomeric cynomolgus LTBR ECD (S28-M227) Fc fusion avi biotinylated (P1AE4411) (cynomolgus, UniProt P0DOX5 223-449 = IgG part, biotinylated avi tag)
T1 construct: also called cyno LTBR
Assay: SPR, IgG captured;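 note: rate constants and KD obtained by fitting double-referenced sensorgrams to a 1:1 Langmuir binding model, with dissociation followed for 600 s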
Measured koff of individual entries

{"columns": ["binder", "unit of measure", "koff"],
 "data": [
  ["P1AF0064 (antibody, human IgG1, kappa, L234A L235A, V domains shown, human IgG1 PG LALA constant regions; V domains from rat immunization; also called LTBR (0064)) VH: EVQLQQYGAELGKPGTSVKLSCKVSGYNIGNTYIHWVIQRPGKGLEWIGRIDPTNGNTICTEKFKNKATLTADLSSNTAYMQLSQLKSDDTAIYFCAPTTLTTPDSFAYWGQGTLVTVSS VL: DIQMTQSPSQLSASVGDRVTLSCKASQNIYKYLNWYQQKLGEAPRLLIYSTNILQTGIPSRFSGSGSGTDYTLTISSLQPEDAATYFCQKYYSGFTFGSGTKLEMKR", "s⁻¹", "5.19e-05"],
  ["P1AF0080 (antibody, human IgG1, kappa, L234A L235A, V domains shown, human IgG1 PG LALA; from transgenic rabbit immunization; also called LTBR (0080)) VH: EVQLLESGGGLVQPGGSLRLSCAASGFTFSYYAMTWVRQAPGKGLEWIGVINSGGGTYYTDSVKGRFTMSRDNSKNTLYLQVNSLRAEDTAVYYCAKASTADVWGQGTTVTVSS VL: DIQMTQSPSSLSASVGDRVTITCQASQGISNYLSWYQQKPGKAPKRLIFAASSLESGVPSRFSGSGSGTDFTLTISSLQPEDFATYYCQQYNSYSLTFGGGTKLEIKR", "s⁻¹", 0.00188],
  ["P1AE9457 (antibody, human IgG1, kappa, L234A L235A, V domains shown, human IgG1 PG LALA; from transgenic rabbit immunization; also called LTBR (9457)) VH: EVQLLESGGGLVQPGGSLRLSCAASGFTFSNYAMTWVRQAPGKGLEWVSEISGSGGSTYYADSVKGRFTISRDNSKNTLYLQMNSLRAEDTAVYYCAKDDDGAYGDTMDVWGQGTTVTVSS VL: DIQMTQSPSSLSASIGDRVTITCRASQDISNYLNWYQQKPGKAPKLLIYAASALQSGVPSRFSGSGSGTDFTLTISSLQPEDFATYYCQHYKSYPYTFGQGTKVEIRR", "s⁻¹", 0.000651]
]}
